- Tested on: MS2 coat protein
- TEST_PROTOCOL: apparent KD of MS2 coat protein; designed switch direction (-1 OFF switch, 1 ON switch): -1; higher = weaker reporter binding
- STATED_CONDITIONS: Eterna round: R95; input ligand: FMN 200 uM
Give apparent KD of MS2 coat protein for every item shown.
Report as a plain number; the unit nM is understood.

Which apparent KD of MS2 coat protein value is on record for AAGAAACAUGAGGAUCACCCAUGUGAGGAUAUGAAAAAGAAAAGAAAAGAAAGAAGAUUCAGAAGGCACAAAGG [salish99-ex1_r3_021] (puzzle: Exclusion 1) ? 60.7

Now the same for CUUCCCAAAGGAUAUCACGGUAAUAACAUGAGGAUCACCCAUGUGCAAUUCGUGUCCCUGUGAGAAGGUUGAGAAG [Anlabe] (puzzle: Exclusion 5) 17.9

Now the same for GAGAAGUGAGGAUAUGCGAUAAGGAUGAAAGGAAGGAAUGAGUAGAAGGCACAUGAGGAUCACCCAUGUAGAGU [JR_Exclu4_Sub080] (puzzle: Exclusion 4) 25.3

Now the same for ACGUGAUAUCUGUCGGUGGACAUGAGGAUCACCCAUGUAAGCUUCUUGCUCGUCUUAUAACCCGGUGACAGACCUUC [Zalaso] (puzzle: Sensor v3, turn-off variant 1) 42.8

Now the same for UUUAAUUUUUUUUUUUUACAAGCUUUUUGCUCGUCUUAUACAUGAGGAUCACCCAUGUGGGUAAGAGAUAAAUUAUC [JMF 13] (puzzle: Sensor v3, turn-off variant 2) 24.9

Now the same for AAGAAACAUGAGGAUCACCCAUGUGAGGAUAUGAGGAAGAAAAGAAAAGAAAGAAGAUUCAGAAGGCACAAAGG [salish99-ex1_r3_058] (puzzle: Exclusion 1) 96.3

Now the same for AGAUGGCGAGGAUAUACAUGAGGAUCACCCAUGUGAAGAAGAAGAGUGAGGAAGAAAAGUAGAAGGCGCUGUCA [Mat - Exclusion 3 - Mod of Salish D30] (puzzle: Exclusion 3) 137

Now the same for ACAAAGGUAGGAUAUCGGACUAUGGACAUGAGGAUCACCCAUGUGCGUCCAGUGUCCAACCGAGAAGGACCCAAAA [Beinge] (puzzle: Exclusion 5) 83.2

Now the same for CGAAGUAGAAACCGAUCCUACAUGAGGAUCACCCAUGUAGCAAGACGUGCACGCGAAGCUCGUCAGACUACCAGAAC [salish99_TOv1_r3_013] (puzzle: Sensor v3, turn-off variant 1) 312

Now the same for AAGAGUGCAGGAUAUACUUGGUAGGGCGGGUGGAUGAAGUGACAUGAGGAUCACCCAUGUAGAAGGGCAGAGAG [JR_Exclu2_Sub055] (puzzle: Exclusion 2) 24.6

Now the same for GUGGUGGGUUUUUCGAGUAACAUGAGGAUCACCCAUGUAUUAGUUGGAUGUAUCAAGCUUUGUGCUCGACUUAUAUA [JR_SV3TOV1_Sub044] (puzzle: Sensor v3, turn-off variant 1) 659

----------
- Tested on: MS2 coat protein
- TEST_PROTOCOL: apparent KD of MS2 coat protein; designed switch direction (-1 OFF switch, 1 ON switch): -1; higher = weaker reporter binding
- STATED_CONDITIONS: input ligand: FMN 200 uM
Classify by measured apparent KD of MS2 coat protein: True if it is equal to or exceeds 20 nM, False if it is smaller.

Check if apparent KD of MS2 coat protein >= 20 nM (inclusive). Item: AAGUACCGGUGAGGAUAUUUAUAAUAGAGCUUUAUGAUAUACAUGAGGAUCACCCAUGUUACUUUAAAGAAGGCAUCGGAUUAA [Mat - Exclusion NG 2 - Mod of JL - D92] (Eterna round: R96, puzzle: Exclusion NG 2) False

Now the same for GAUCCUUCUGUUAGGAUAUGCAACGGGCUUCCGCAGCAGAAGGAACAUGAGGAUCACCCAUGUCAAAUAAAAUC [JL-BMX4-4.36 ViennaUCT mod] (Eterna round: R97, puzzle: Brourd's mod of Exclusion 4) True

Now the same for CGAUGCUCGAGUCGACAUGAGGAUCACCCAUGUAGAGUUAGCGAGGAUAUCGGAGACACAUAGUAUGAGAAGGCGCGAACCUGA [Ex NG3 #19] (Eterna round: R96, puzzle: Exclusion NG 3) True

Now the same for CAUACAGUAGUCAGGAUAUUGGAAGAGACACGGAACGAGAAGGGACAUGAGGAUCACCCAUGUAUACUGUAAAG [EX-4 Malc #4] (Eterna round: R96, puzzle: Brourd's mod of Exclusion 4) True

Now the same for UGCAGACGAGGAUAUGAUAAAGAUCACAUGAGGAUCACCCAUGUACGCAGGAUACUGCGAUCAGAAGGCGUCUGCA [E5/1-A3] (Eterna round: R97, puzzle: Exclusion 5) False
